Record form. Attribute: IC50. Fill in for each entry.
# Tested on: L2987
# assay.method.text: Cytotoxicity assay (alamarBlue), lung line L2987, experiment 2
# Format: cell-based
# experimental.parameters: Homo sapiens, 120 h; L2987, experiment 2; read on day 5, alamarBlue; read-out: IC50 values for L2987 experiment 2
Answer in µM, number only, no unit symbol.

Read off the recorded IC50 for CC1(C)CC=C(c2cccs2)c2cc(C(=O)Nc3ccc(C(=O)O)cc3)ccc21 [I^2 a] 64

Read off the recorded IC50 for Cc1ccsc1C1=CCC(C)(C)c2ccc(C(=O)Nc3ccc(C(=O)O)cc3)cc21 [I^2 b] 50
